- target.of.assay: Vasopressin V1a receptor (Mus musculus)
- Sequence (Q62463 whole entry): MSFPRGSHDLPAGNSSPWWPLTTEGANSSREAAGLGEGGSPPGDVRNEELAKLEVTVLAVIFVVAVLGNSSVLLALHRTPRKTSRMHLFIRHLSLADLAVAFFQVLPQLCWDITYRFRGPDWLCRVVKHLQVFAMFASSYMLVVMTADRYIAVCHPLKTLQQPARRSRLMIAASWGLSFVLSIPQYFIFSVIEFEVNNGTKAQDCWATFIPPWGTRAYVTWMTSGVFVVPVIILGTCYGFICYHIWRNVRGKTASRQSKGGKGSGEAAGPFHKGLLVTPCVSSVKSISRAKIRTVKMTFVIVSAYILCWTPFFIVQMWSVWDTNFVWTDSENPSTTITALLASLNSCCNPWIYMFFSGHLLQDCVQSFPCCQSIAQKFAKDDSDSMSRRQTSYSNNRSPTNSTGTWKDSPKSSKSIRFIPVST
pKi: −log10 of the molar value.

structure.notation | pKi
Cc1cccc(N2CCN(c3nnc4n3-c3ccc(Cl)cc3CC3(C4)OCCO3)CC2)c1C | 9.40

----------
Quick record of Ki values for Vasopressin V1a receptor (Homo sapiens, UniProt P37288).

compound | target.of.assay | Ki / nM
Clc1ccc2c(c1)CC1(CCCO1)Cc1nnc(N3CCN(c4cccc5c4OCC5)CC3)n1-2 (stereo unspecified) | Vasopressin V1a receptor (Homo sapiens, UniProt P37288) | 1.4
Clc1ccc2c(c1)CC1(Cc3nnc(C4CCN(c5cccc6c5OCC6)CC4)n3-2)OCCO1 | Vasopressin V1a receptor (Homo sapiens, UniProt P37288) | 0.2
CC1(C)Cc2cccc(N3CCN(c4nnc5n4-c4ccc(Cl)cc4CC4(C5)OCCO4)CC3)c2O1 | Vasopressin V1a receptor (Homo sapiens, UniProt P37288) | 0.82
NC(=O)C1Cc2cc(Cl)ccc2-n2c(nnc2N2CCC3(CC2)OCc2ccccc23)C1 (stereo unspecified) | Vasopressin V1a receptor (Homo sapiens, UniProt P37288) | 2.1
Clc1ccc2c(c1)CC1(Cc3nnc(C4CCN(c5cccc6c5CCO6)CC4)n3-2)OCCO1 | Vasopressin V1a receptor (Homo sapiens, UniProt P37288) | 0.3
Clc1ccc2c(c1)CC1(Cc3nnc(N4CCN(c5nccc6ccsc56)CC4)n3-2)OCCO1 | Vasopressin V1a receptor (Homo sapiens, UniProt P37288) | 0.14
Clc1ccc2c(c1)CC1(Cc3nnc(N4CCN(c5cccc6c5OCC6)CC4)n3-2)OCCO1 | Vasopressin V1a receptor (Homo sapiens, UniProt P37288) | 0.13
Clc1ccc2c(c1)CC1(Cc3nnc(N4CCC(c5cccc6c5OCC6)CC4)n3-2)OCCO1 | Vasopressin V1a receptor (Homo sapiens, UniProt P37288) | 0.2
COC1(c2ccccc2)CCN(c2nnc3n2-c2ccc(Cl)cc2CC2(C3)OCCO2)CC1 | Vasopressin V1a receptor (Homo sapiens, UniProt P37288) | 0.17
NC(=O)C1Cc2cc(Cl)ccc2-n2c(nnc2N2CCN(c3cccc(Cl)c3)CC2)C1 (stereo unspecified) | Vasopressin V1a receptor (Homo sapiens, UniProt P37288) | 7.7
NC(=O)C1Cc2cc(Cl)ccc2-n2c(nnc2N2CCC(Oc3ccccn3)CC2)C1 (stereo unspecified) | Vasopressin V1a receptor (Homo sapiens, UniProt P37288) | 1.4

Reference source for all entries: ChEMBL document CHEMBL6074677
